- System: Candida albicans
- Test name: Antifungal activity against Candida albicans CPCC400616 measured at 24 hrs by CLSI protocol based microbroth dilution method
- Format: functional
- Condition: CPCC400616, 24 h
Experimental endpoint: MIC90 (µg/mL)
Give just the number in µg/mL; leave the unit off.

MIC90 measured on "Cc1ccc2c(c1)/C(=N/NC(=O)Nc1ccccc1)CC[Se]2" = 64

The compound "NNC(=S)NN" showed MIC90 equal to 32

So for "Cc1ccc(C)c(NC(=O)N/N=C2\CC[Se]c3ccc(F)cc32)c1" , the logged MIC90 turned out to be 8

MIC90 for "O=C1CC[Se]c2ccccc21" is 64

Reported MIC90 ( "Cc1ccc(C)c(NC(=S)N/N=C2\CC[Se]c3ccc(F)cc32)c1" ) = 8

Value of measured MIC90 for the entry "CCc1ccccc1NC(=O)N/N=C1\CC[Se]c2ccc(C)cc21" : 64

Reported MIC90 for "Cc1ccc2c(c1)/C(=N/NC(=S)Nc1ccccc1)CC[Se]2" was 64

Form field MIC90, entry "COc1ccc(OC)c(NC(=S)N/N=C2\CC[Se]c3ccc(C)cc32)c1" : 64

Data point: "Cc1ccc2c(c1)/C(=N/NC(=S)NN)CC[Se]2" ; MIC90 = 8

What the record says about "CCc1ccccc1NC(=O)N/N=C1\CC[Se]c2ccc(F)cc21" : MIC90 is 8

The reported MIC90 of the compound "O=C1CC[Se]c2ccc(F)cc21" was 16

# compound "Fc1ccc2c(c1)/C(=N/NC(=S)Nc1ccccc1)CC[Se]2" ; its MIC90 = 0.25

Lookup result for "Cc1ccc(C)c(NC(=S)N/N=C2\CC[Se]c3ccccc32)c1" ; measured MIC90: 16

For reference, reported MIC90 for "Cc1ccc2c(c1)/C(=N/NC(=O)Nc1ccccc1Cl)CC[Se]2" stands at 64

---

- Tested on: Cryptococcus neoformans
- Test name: Antifungal activity against Cryptococcus neoformans CGMCC2.3161 measured at 72 hrs by CLSI protocol based microbroth dilution method
- Format: functional
- Condition: CGMCC2.3161, 72 h
Experimental endpoint: MIC90 (µg/mL)
Express it in µg/mL; write the number only.

"NNC(=S)NN" yielded MIC90 of 64

Input "COc1cccc(NC(=S)N/N=C2\CC[Se]c3ccccc32)c1" . Output MIC90: 4

MIC90 measured on "CCOc1ccc(NC(=O)N/N=C2\CC[Se]c3ccc(C)cc32)cc1" = 32

Lab note: "Fc1ccc2c(c1)/C(=N/NC(=S)Nc1ccccc1)CC[Se]2" gave MIC90 of 2

The recorded MIC90 for entry "Cc1ccc2c(c1)/C(=N/NC(=O)Nc1ccccc1)CC[Se]2" equals 8

Value of measured MIC90 for the entry "NNC(=S)N/N=C1\CC[Se]c2ccccc21" : 0.5

Reported MIC90 for "CCc1ccccc1NC(=O)NN" was 32

Looking up "Cc1ccc(C)c(NC(=S)N/N=C2\CC[Se]c3ccc(F)cc32)c1" , I see its MIC90 listed as 16

GET /value?item= "Cc1ccc(NC(=S)N/N=C2\CC[Se]c3ccc(C)cc32)cc1" &field=MIC90 returns 32

Form: molecule = "Cc1ccc2c(c1)/C(=N/NC(=S)Nc1ccccc1)CC[Se]2" ; MIC90 = 16

Summary for this molecule, "COc1cccc(NC(=S)N/N=C2\CC[Se]c3ccc(F)cc32)c1" : MIC90 is 1

MIC90 reported for this molecule "COc1ccc(OC)c(NC(=S)N/N=C2\CC[Se]c3ccccc32)c1" : 2

Note to self: MIC90 recorded for "COc1cccc(NC(=S)N/N=C2\CC[Se]c3ccc(C)cc32)c1" was 32

For this molecule ( "O=C(N/N=C1\CC[Se]c2ccc(F)cc21)Nc1ccccc1Cl" ), measured MIC90 is 16

Per the records, this molecule ( "Cc1ccc(NC(=S)N/N=C2\CC[Se]c3ccccc32)cc1" ) has MIC90 equal to 8

Item: "Cc1ccc(C)c(NC(=S)N/N=C2\CC[Se]c3ccc(C)cc32)c1" | MIC90: 16

Briefly, MIC90 measured for "OC(Cn1cncn1)(Cn1cncn1)c1ccc(F)cc1F" : 1

MIC90 for "Cc1ccc(NC(=S)N/N=C2\CC[Se]c3ccc(F)cc32)cc1" is 2

MIC90 recorded for this molecule, "CCOc1ccc(NC(=O)N/N=C2\CC[Se]c3ccc(F)cc32)cc1" , is 32

// MIC90 lookup, molecule = "O=C(N/N=C1\CC[Se]c2ccc(F)cc21)Nc1cccc(Br)c1" , result: 16

// recorded MIC90 for "S=C(N/N=C1\CC[Se]c2ccccc21)Nc1ccccc1" : 8

molecule "Cc1ccc2c(c1)/C(=N/NC(=O)Nc1ccccc1Cl)CC[Se]2" , MIC90 observed: 64

MIC90 reading for "CCc1ccccc1NC(=O)N/N=C1\CC[Se]c2ccc(C)cc21" : 4

Lab note: "COc1ccc(OC)c(NC(=S)N/N=C2\CC[Se]c3ccc(F)cc32)c1" gave MIC90 of 4

Entry "Cc1ccc2c(c1)/C(=N/NC(=S)NN)CC[Se]2" — recorded MIC90 = 4

Form field MIC90, entry "NNC(=S)Nc1ccccc1" : 64

MIC90 in this record for "NNC(=S)N/N=C1\CC[Se]c2ccc(F)cc21" : 4

Per the records, this molecule ( "Cc1ccc(C)c(NC(=O)N/N=C2\CC[Se]c3ccc(C)cc32)c1" ) has MIC90 equal to 64

Value of MIC90 reported for the molecule "COc1ccc(OC)c(NC(=S)N/N=C2\CC[Se]c3ccc(C)cc32)c1" is 32

// field: MIC90; key: "Cc1ccc(C)c(NC(=S)N/N=C2\CC[Se]c3ccccc32)c1" ; value = 16

The measured MIC90 associated with "O=C1CC[Se]c2ccccc21" reads 8

---

- Test system: Candida albicans
- Test name: Antifungal activity against fluconazole-resistant Candida albicans isolate 100 incubated for 24 hrs by CLSI protocol based microbroth dilution method
- Assay type: functional
- Condition: isolate 100, 24 h
Please note: MIC90 exactly at 2 mg/L is F. Only values below 2 mg/L get T.

-- ask API: query returns whether the compound falls strictly under 2 mg/L in MIC90. Query: "NNC(=S)N/N=C1\CC[Se]c2ccccc21"
-- reply F

-- ask Determine whether this compound shows MIC90 lower than 2 mg/L (ties excluded): "S=C(N/N=C1\CC[Se]c2ccccc21)Nc1ccccc1"
-- reply F

-- ask Check if MIC90 falls below 2 mg/L for "Fc1ccc2c(c1)/C(=N/NC(=S)Nc1ccccc1)CC[Se]2" .
-- reply T

-- ask Lab log: compare recorded MIC90 with 2 mg/L; is it strictly lower for "OC(Cn1cncn1)(Cn1cncn1)c1ccc(F)cc1F" ?
-- reply F

-- ask For this compound, is MIC90 lower than 2 mg/L? "NNC(=S)N/N=C1\CC[Se]c2ccc(F)cc21"
-- reply F

---

For each of the compounds below, state its MIC90.
- Tested on: Candida albicans
- Test name: Antifungal activity against Candida albicans CPCC400616 measured at 24 hrs by CLSI protocol based microbroth dilution method
- Format: functional
- Condition: CPCC400616, 24 h
Supply the numeric figure in µg/mL, leaving out any unit text.

Entry "O=C(N/N=C1\CC[Se]c2ccc(F)cc21)Nc1cccc(Br)c1" — recorded MIC90 = 16

Record summary for "COc1cccc(NC(=S)N/N=C2\CC[Se]c3ccc(C)cc32)c1" : reported MIC90 = 64

Lookup result for "O=C(N/N=C1\CC[Se]c2ccc(F)cc21)Nc1ccccc1Cl" ; measured MIC90: 8

Sample "COc1cccc(NC(=S)N/N=C2\CC[Se]c3ccccc32)c1" ; MIC90 observed: 16

// "NNC(=S)N/N=C1\CC[Se]c2ccc(F)cc21" : MIC90 value = 2

Looking up "Cc1ccc(NC(=S)N/N=C2\CC[Se]c3ccc(C)cc32)cc1" , I found its MIC90 recorded as 64

The recorded MIC90 for entry "S=C(N/N=C1\CC[Se]c2ccccc21)Nc1ccccc1" equals 0.5

Kindly note the recorded MIC90 for "Cc1ccc(NC(=S)N/N=C2\CC[Se]c3ccc(F)cc32)cc1" , which is 8

Looking up "CCOc1ccc(NC(=O)N/N=C2\CC[Se]c3ccc(F)cc32)cc1" , I see its MIC90 listed as 8

MIC90 in this record for "OC(Cn1cncn1)(Cn1cncn1)c1ccc(F)cc1F" : 2

Value of measured MIC90 for the entry "COc1ccc(OC)c(NC(=S)N/N=C2\CC[Se]c3ccc(F)cc32)c1" : 8

Memo: "Cc1ccc(C)c(NC(=O)N/N=C2\CC[Se]c3ccc(C)cc32)c1" , reported MIC90: 64

Note to self: MIC90 recorded for "CCc1ccccc1NC(=O)NN" was 64

According to the records, this compound "CCOc1ccc(NC(=O)N/N=C2\CC[Se]c3ccc(C)cc32)cc1" displays MIC90 of 64

// MIC90 lookup, compound = "Cc1ccc(C)c(NC(=S)N/N=C2\CC[Se]c3ccc(C)cc32)c1" , result: 2

Memo: "NNC(=S)N/N=C1\CC[Se]c2ccccc21" , reported MIC90: 8

Lab book: MIC90 of "Cc1ccc(NC(=S)N/N=C2\CC[Se]c3ccccc32)cc1" noted as 8

Record summary for "COc1cccc(NC(=S)N/N=C2\CC[Se]c3ccc(F)cc32)c1" : reported MIC90 = 8

// "COc1ccc(OC)c(NC(=S)N/N=C2\CC[Se]c3ccccc32)c1" : MIC90 value = 8

"NNC(=S)Nc1ccccc1" yielded MIC90 of 64

Consider "Cc1ccc2c(c1)C(=O)CC[Se]2" . Its measured MIC90 is 32
